Assay: growth inhibitors of tim10-1 mutant yeast, primary screen, luminescence, uHTS (AID 463190);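 further: mutant grown at 25 °C; 0% = DMSO wells with yeast and 100% = wells holding no yeast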
Details: S. cerevisiae tim10-1 ts strain growth, BacTiter-Glo, 24 h; at 20 µM; active compounds read high
About 7,300 (2.2%) of roughly 330,000 compounds were called active. Many of the other results were omitted from the sample, so actives are more common in it than they were.
endpoint: inhibition (%)

{"compound": "O=C(C1CCCO1)N(c1ccc(F)cc1)C1C=CS(=O)(=O)C1 (configuration not stated)", "endpoint": "inhibition", "endpoint.value": 5.92}
{"compound": "CCN=C1S/C(=C\\c2cc(Br)ccc2OCC(=O)OCC)C(=O)N1CC", "endpoint": "inhibition", "endpoint.value": 25.5}
{"compound": "COc1cc(NC(=O)C2CCN(c3cnccn3)CC2)cc(OC)c1", "endpoint": "inhibition", "endpoint.value": 18.5}
{"compound": "CCc1ccccc1NC(=O)Cc1cn(C)c2ccccc12", "endpoint": "inhibition", "endpoint.value": 24.8}
{"compound": "CC(C)Oc1ccc(C(CC(=O)N2CCOCC2)C(C)C)cc1 (configuration not stated)", "endpoint": "inhibition", "endpoint.value": 1.61}
{"compound": "COC(=O)c1ccccc1NC(=O)CN(Cc1ccc(Cl)cc1)S(C)(=O)=O", "endpoint": "inhibition", "endpoint.value": 10.7}
{"compound": "FC(F)(F)Oc1ccc(NC(=S)NCc2ccccc2)cc1", "endpoint": "inhibition", "endpoint.value": 41.8}
{"compound": "COc1ccc(C(=O)c2c3ccc([N+](=O)[O-])cc3[n+]([O-])n2CCCN)cc1", "endpoint": "inhibition", "endpoint.value": 1.86}
{"compound": "Cn1c(=O)c2c(ncn2CC(COCc2ccccc2Cl)OCc2ccccc2Cl)n(C)c1=O (configuration not stated)", "endpoint": "inhibition", "endpoint.value": 19.9}
{"compound": "CSc1ccccc1NC(=O)COC(=O)CCCOc1ccc(C)cc1", "endpoint": "inhibition", "endpoint.value": 7.06}
{"compound": "COc1cccc(CNc2nc(C(F)(F)F)nc3ccccc23)c1", "endpoint": "inhibition", "endpoint.value": 39.2}
{"compound": "COc1ccc(OC)c(C(O)c2nc3ccccc3n2C)c1 (configuration not stated)", "endpoint": "inhibition", "endpoint.value": 12}
{"compound": "CC(Nc1nc(C(F)(F)F)nc2ccccc12)c1cccs1 (configuration not stated)", "endpoint": "inhibition", "endpoint.value": 42.6}
{"compound": "COc1ccc(Nc2nc(N)nc(CSC(=S)N3CCC(C)CC3)n2)cc1", "endpoint": "inhibition", "endpoint.value": 46.2}
{"compound": "O=C(OCC(=O)N1CCCC1=O)c1cc(S(=O)(=O)N2CCOCC2)ccc1Cl", "endpoint": "inhibition", "endpoint.value": -17.2}
{"compound": "COc1cc([N+](=O)[O-])ccc1NC(=O)COC(=O)CCOc1ccc(C)cc1", "endpoint": "inhibition", "endpoint.value": 50.3}
{"compound": "COC(=O)c1cccc([N+](=O)[O-])c1CS(=O)(=O)c1ccc(C)cc1", "endpoint": "inhibition", "endpoint.value": 24.5}
{"compound": "O=C(NCc1ccccc1)C(c1cccnc1)N(C(=O)c1csnn1)c1ccc(F)cc1 (configuration not stated)", "endpoint": "inhibition", "endpoint.value": -25}
{"compound": "CN1C(=O)[C@H]2[C@@H](/C=C/c3ccccc3)N3C(=O)CN(Cc4ccc(-c5ccccc5)cc4)C(=O)[C@@]3(C)[C@H]2C1=O", "endpoint": "inhibition", "endpoint.value": 1.58}
{"compound": "COc1ccccc1Nc1nc(N)nc(CSC(=S)N2CCOCC2)n1", "endpoint": "inhibition", "endpoint.value": 23.3}
{"compound": "CCc1ccc(C(CNc2nc(C(F)(F)F)nc3ccccc23)N(C)C)cc1 (configuration not stated)", "endpoint": "inhibition", "endpoint.value": 29.3}
{"compound": "CCOC(=O)c1sc(N)c(C#N)c1COC(=O)C1=COCCO1", "endpoint": "inhibition", "endpoint.value": 9.07}
